I'd appreciate it if you could supply pIC50 values for the items below.
Tested on: human primary hepatocyte
assay-comment: Human primary hepatocyte cytotoxicity (ATPlite)
Type: cell-based
test-context: about 72 hours incubation
Numbers only, as −log10 of the molar value.

INSERT INTO assay_data (compound, measured_number) VALUES
  ('CC(C)(/C=C(\C#N)C(=O)N1CCC[C@@H](n2nc(-c3ccc(Oc4ccccc4)cc3F)c3c(N)ncnc32)C1)N1CCN(C2COC2)CC1 [PRN-1008, reference compound]', 4.63);

Exercise: Lab note: record pIC50 of C=CC(=O)Nc1cc(Nc2nc(-c3ccnc(N4CCn5c(cc6c5CC(C)(C)C6)C4=O)c3CO)cn(C)c2=O)ccc1N1CCN(C2CCOCC2)C[C@H]1C(F)(F)F tested on human primary hepatocyte.
Key: 4.39

---

target-desc: BTK (Homo sapiens, UniProt Q06187)
result-type: pIC50
Answers are plain numbers, as −log10 of the molar value.

Exercise: Supply recorded pIC50 for C=CC(=O)Nc1cc(Nc2nc(-c3ccnc(N4CCn5c(cc6c5CC(C)(C)C6)C4=O)c3CO)cn(C)c2=O)ccc1N1CCN(C2CCOCC2)C[C@H]1C(F)(F)F [Example 48-S] here.
Key: 10.00

---

target-desc: HER2 (Homo sapiens, UniProt P04626)
Sequence (P04626 23-1255): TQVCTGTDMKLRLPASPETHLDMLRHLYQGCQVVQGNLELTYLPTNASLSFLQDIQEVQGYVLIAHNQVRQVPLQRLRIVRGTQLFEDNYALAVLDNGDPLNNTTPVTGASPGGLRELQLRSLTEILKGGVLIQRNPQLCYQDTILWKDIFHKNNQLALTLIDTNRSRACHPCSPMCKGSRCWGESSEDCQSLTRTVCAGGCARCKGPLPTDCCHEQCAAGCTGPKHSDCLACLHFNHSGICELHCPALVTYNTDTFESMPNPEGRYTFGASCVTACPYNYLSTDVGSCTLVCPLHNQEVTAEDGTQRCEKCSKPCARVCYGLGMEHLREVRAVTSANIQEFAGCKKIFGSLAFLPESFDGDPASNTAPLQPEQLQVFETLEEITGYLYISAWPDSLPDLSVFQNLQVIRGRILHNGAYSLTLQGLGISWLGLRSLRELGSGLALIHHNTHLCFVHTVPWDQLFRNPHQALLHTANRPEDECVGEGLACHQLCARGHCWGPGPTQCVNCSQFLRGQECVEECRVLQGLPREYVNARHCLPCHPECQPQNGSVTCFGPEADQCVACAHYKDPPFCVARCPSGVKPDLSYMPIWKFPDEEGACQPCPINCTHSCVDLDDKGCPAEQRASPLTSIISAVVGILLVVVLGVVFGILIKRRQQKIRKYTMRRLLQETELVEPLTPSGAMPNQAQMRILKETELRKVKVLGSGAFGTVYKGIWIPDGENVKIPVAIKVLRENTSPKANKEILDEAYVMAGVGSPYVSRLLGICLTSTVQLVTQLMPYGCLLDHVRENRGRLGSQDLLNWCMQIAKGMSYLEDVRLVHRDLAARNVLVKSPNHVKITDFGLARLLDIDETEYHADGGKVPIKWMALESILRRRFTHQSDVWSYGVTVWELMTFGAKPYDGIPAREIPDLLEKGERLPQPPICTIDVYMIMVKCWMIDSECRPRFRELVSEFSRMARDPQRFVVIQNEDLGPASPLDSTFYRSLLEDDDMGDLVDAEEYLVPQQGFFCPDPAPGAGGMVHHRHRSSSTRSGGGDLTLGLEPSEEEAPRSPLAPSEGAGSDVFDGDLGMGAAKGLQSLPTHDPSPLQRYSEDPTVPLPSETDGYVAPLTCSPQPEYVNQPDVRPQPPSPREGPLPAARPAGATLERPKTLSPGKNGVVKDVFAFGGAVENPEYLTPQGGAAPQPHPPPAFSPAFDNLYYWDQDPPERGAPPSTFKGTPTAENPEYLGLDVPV
pIC50: −log10 of the molar value.
I'd appreciate it if you could supply pIC50 values for the items below.

INSERT INTO assay_data (compound, result) VALUES
  ('C=CC(=O)Nc1cc(Nc2nc(-c3ccnc(N4CCn5c(cc6c5CC(C)(C)C6)C4=O)c3CO)cn(C)c2=O)ccc1N1CCN(C2CCOCC2)C[C@H]1C(F)(F)F', '< 6.00');

Shift focus to the following entry.
Exercise: Supply recorded pIC50 for CC(C)(/C=C(\C#N)C(=O)N1CCC[C@@H](n2nc(-c3ccc(Oc4ccccc4)cc3F)c3c(N)ncnc32)C1)N1CCN(C2COC2)CC1 [PRN-1008, reference compound] here.
Key: < 6.00

---

target-desc: HER4 (Homo sapiens)
Sequence (Q15303 26-1308): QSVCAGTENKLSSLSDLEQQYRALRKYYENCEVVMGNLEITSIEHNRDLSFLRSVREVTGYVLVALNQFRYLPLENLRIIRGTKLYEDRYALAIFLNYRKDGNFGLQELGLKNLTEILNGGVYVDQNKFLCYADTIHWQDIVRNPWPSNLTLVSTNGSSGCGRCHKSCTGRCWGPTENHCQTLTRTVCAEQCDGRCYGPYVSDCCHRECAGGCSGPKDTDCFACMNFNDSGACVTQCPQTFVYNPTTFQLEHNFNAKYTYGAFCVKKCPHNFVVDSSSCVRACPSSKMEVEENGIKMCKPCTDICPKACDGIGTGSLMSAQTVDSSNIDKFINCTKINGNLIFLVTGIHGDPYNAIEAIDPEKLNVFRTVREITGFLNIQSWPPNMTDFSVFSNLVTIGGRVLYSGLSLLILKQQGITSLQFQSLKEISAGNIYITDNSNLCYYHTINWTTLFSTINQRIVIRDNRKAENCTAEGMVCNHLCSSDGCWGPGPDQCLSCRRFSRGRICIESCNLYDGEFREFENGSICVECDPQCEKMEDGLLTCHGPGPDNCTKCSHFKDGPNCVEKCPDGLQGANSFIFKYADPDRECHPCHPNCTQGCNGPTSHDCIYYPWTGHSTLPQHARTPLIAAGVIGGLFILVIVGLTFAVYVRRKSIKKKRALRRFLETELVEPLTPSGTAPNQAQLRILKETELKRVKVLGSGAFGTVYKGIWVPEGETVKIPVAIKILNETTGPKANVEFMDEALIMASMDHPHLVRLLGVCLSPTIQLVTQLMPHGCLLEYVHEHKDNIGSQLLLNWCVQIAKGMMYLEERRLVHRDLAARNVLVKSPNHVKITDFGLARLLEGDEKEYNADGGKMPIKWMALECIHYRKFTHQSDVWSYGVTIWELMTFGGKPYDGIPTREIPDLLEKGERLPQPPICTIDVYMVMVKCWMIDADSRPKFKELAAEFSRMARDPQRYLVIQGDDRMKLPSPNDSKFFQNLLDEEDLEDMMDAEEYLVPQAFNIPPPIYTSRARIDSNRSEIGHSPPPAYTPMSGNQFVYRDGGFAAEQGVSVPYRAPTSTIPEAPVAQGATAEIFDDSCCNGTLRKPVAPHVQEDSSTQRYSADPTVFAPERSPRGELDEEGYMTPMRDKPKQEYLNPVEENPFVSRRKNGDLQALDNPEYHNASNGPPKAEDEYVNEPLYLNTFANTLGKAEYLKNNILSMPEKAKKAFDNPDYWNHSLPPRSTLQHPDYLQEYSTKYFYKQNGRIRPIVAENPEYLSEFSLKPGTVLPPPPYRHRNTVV
result-type: IC50 (nM)
Give bare numbers, in nM.

Exercise: Supply recorded IC50 for CC(C)(/C=C(\C#N)C(=O)N1CCC[C@@H](n2nc(-c3ccc(Oc4ccccc4)cc3F)c3c(N)ncnc32)C1)N1CCN(C2COC2)CC1 [PRN-1008, reference compound] here.
Key: 3.1

---

target-desc: WT BTK (Homo sapiens, UniProt Q06187)
Sequence (Q06187 whole entry): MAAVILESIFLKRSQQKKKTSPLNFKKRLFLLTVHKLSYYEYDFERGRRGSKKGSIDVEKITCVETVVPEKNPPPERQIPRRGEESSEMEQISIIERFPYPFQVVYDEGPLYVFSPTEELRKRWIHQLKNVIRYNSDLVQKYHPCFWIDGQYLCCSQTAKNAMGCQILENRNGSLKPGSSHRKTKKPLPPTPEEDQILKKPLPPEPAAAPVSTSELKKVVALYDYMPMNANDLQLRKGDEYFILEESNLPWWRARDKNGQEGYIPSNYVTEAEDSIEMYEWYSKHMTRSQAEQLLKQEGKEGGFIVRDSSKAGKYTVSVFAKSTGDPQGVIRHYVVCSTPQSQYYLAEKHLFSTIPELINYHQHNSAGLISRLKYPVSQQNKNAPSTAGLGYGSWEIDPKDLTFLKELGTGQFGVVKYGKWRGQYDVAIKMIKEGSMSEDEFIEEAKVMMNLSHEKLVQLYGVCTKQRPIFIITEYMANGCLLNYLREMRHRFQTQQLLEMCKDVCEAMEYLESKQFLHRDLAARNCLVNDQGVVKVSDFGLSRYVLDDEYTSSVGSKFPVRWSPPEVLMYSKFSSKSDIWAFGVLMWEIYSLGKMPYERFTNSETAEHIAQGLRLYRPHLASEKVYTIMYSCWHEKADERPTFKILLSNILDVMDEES
assay-comment: Caliper-based kinase assay, WT BTK
Type: biochemical
test-context: 0.5 nM enzyme, ATP 16 μM, room temperature 3 h; read-out: WT BTK IC50 (nM) (irreversible inhibition)
result-type: IC50 (nM)
Numbers only, in nM.

Solved cases below.
INSERT INTO results (molecule, unit_label, measured_number) VALUES
  ('C=CC(=O)Nc1cc(Nc2nc(-c3ccnc(N4CCn5c(cc6c5CC(C)(C)C6)C4=O)c3C)cn(C)c2=O)ccc1N1CCN(C2COC2)C[C@@H]1C [Example 11]', 'nM', 0.25),
  ('C=CC(=O)Nc1cc(Nc2nc(-c3ccnc(N4CCn5c(cc6c5CC(C)(C)C6)C4=O)c3C)cn(C)c2=O)ccc1N1CCN(C2COC2)CC1(C)C [Example 45]', 'nM', 0.36),
  ('C=CC(=O)Nc1cc(Nc2nc(-c3ccnc(N4CCn5c(cc6c5CC(C)(C)C6)C4=O)c3CO)cn(C)c2=O)ccc1N1CCN(C2CCOCC2)CC1C (stereo not shown) [Example 47]', 'nM', 0.12);

Shift focus to the following entry.
Exercise: Supply recorded IC50 for C=CC(=O)Nc1cc(Nc2nc(-c3ccnc(N4CCn5c(cc6c5CC(C)(C)C6)C4=O)c3CO)cn(C)c2=O)ccc1N1CCN(C2CCC(F)(F)CC2)C[C@@H]1C [Example 23] here.
Key: 0.048
